# Test system: Staphylococcus intermedius
# protocolDescription: Antibacterial activity against Staphylococcus intermedius obtained from complicated skin and skin structure infections by agar dilution method
# Type: functional
quantityName: MIC50 (mg/L)

* CC1(C)S[C@@H]2[C@H](NC(=O)Cc3ccccc3)C(=O)N2[C@H]1C(=O)O [PENICILLIN G] | 0.5
* CCC[C@@H]1C[C@@H](C(=O)N[C@@H]([C@H]2O[C@H](SC)[C@H](O)[C@@H](O)[C@H]2O)[C@H](C)Cl)N(C)C1 [CLINDAMYCIN] | 2
* CC(C)(O/N=C(\C(=O)N[C@@H]1C(=O)N2C(C(=O)[O-])=C(C[n+]3ccccc3)CS[C@H]12)c1csc(N)n1)C(=O)O [CEFTAZIDIME] | 0.12
* Nc1nc(/C(=N/O)C(=O)N[C@@H]2C(=O)N3C(C(=O)O)=C(/C=C4\CCN([C@@H]5CCNC5)C4=O)CS[C@H]23)ns1 [CEFTOBIPROLE] | 0.06
